For each entry below, report its kinase still bound, per cent of control value.
target desc: MYLK (human)
assay comment: KINOMEscan competition binding
measurement parameters: compound 10.0 µM
Report as a plain number; the unit % is understood.

So what kinase still bound, per cent of control did Cc1ccc(C(=O)Nc2cccc(C(F)(F)F)c2)cc1Nc1cncc(C(N)=O)c1 get with MYLK (human)?
100

So what kinase still bound, per cent of control did Nc1ccc(-c2ccc3ncc4ccc(=O)n(-c5cccc(C(F)(F)F)c5)c4c3c2)cn1 get with MYLK (human)?
95

So what kinase still bound, per cent of control did OCCCNc1cc(-c2ccnc(Nc3cccc(Cl)c3)n2)ccn1 get with MYLK (human)?
100

So what kinase still bound, per cent of control did O=C(O)c1ccc(Nc2ncc3c(n2)-c2ccc(Cl)cc2C(c2c(F)cccc2F)=NC3)cc1 get with MYLK (human)?
95

So what kinase still bound, per cent of control did N#Cc1c(NC(=O)c2cccc3ccccc23)sc2c1CCCC2 get with MYLK (human)?
99

So what kinase still bound, per cent of control did CCCS(=O)(=O)Nc1ccc(F)c(C(=O)c2c[nH]c3ncc(-c4ccc(Cl)cc4)cc23)c1F get with MYLK (human)?
91

So what kinase still bound, per cent of control did CC[C@@H]1C(=O)N(C)c2cnc(Nc3ccc(C(=O)NC4CCN(C)CC4)cc3OC)nc2N1C1CCCC1 get with MYLK (human)?
3.6

So what kinase still bound, per cent of control did O=C(NC1CC1)c1cccc(-c2ccc3c(NC(=O)C4CC4)n[nH]c3c2)c1 get with MYLK (human)?
63

So what kinase still bound, per cent of control did Cc1ccc2nc(NCCN)c3ncc(C)n3c2c1 get with MYLK (human)?
79

So what kinase still bound, per cent of control did Cc1ccc(NC(=O)c2cccc(C(C)(C)C#N)c2)cc1Nc1ccc2ncn(C)c(=O)c2c1 get with MYLK (human)?
98

So what kinase still bound, per cent of control did COc1cc(N2CCN(C)CC2)ccc1Nc1nc(N)c(C(=O)c2c(Cl)cccc2Cl)s1 get with MYLK (human)?
18

So what kinase still bound, per cent of control did C=CC(=O)Nc1cc(NC(=O)c2ccc(C)c(NC(=O)c3ccno3)c2)cc(C(F)(F)F)c1 get with MYLK (human)?
100

----------
target desc: MET (human)
assay comment: KINOMEscan competition binding
measurement parameters: compound 10.0 µM
experimental endpoint: kinase still bound, per cent of control
Please report the result as a number followed by the unit.

What value of kinase still bound, per cent of control has been recorded for this entry: C=CC(=O)Nc1cc(NC(=O)c2ccc(C)c(NC(=O)c3ccno3)c2)cc(C(F)(F)F)c1
100%

What value of kinase still bound, per cent of control has been recorded for this entry: COc1cc(C(=O)NC2CCN(C)CC2)ccc1Nc1ncc2c(n1)N(C1CCCC1)C(C)CC(=O)N2C (centres undefined)
100%

What value of kinase still bound, per cent of control has been recorded for this entry: O=C(NC1CC1)c1cccc(-c2ccc3c(NC(=O)C4CC4)n[nH]c3c2)c1
75%

What value of kinase still bound, per cent of control has been recorded for this entry: COc1cc(C(=O)NC2CCN(C)CC2)ccc1Nc1ncc2c(n1)N(C1CCCC1)CCC(=O)N2C(C)C
100%

What value of kinase still bound, per cent of control has been recorded for this entry: C=CC(=O)Nc1cccc(Nc2nc(N[C@H]3CC[C@H](N(C)C)CC3)nc3c2ncn3C(C)C)c1
100%

What value of kinase still bound, per cent of control has been recorded for this entry: N#Cc1c(NC(=O)c2cccc3ccccc23)sc2c1CCCC2
66%

What value of kinase still bound, per cent of control has been recorded for this entry: CCC(=O)N1CCN(c2ccc(-n3c(=O)ccc4cnc5ccc(-c6cnc7ccccc7c6)cc5c43)cc2C(F)(F)F)CC1
84%

What value of kinase still bound, per cent of control has been recorded for this entry: Cc1ccc2nc(NCCN)c3ncc(C)n3c2c1
100%

What value of kinase still bound, per cent of control has been recorded for this entry: Cc1ccc(C(=O)Nc2cccc(C(F)(F)F)c2)cc1Nc1cncc(C(N)=O)c1
100%
